- Study target: Ribonucleotide reductase (Herpes simplex virus type 2)
- Protocol description: Compound was tested in vitro for inhibitory activity against Herpes Simplex Virus type 2 ribonucleotide reductase
pIC50: −log10 of the molar value. Non-standard residues stand in square brackets, D forms with d. Residues, ends and D or L forms follow the SMILES beside them. NBnTyr = O=C(O)[C@H](Cc1ccc(O)cc1)NCc1ccccc1
Measure name: pIC50

# Molecule, Assay result
rows = [
    ("CC(C)C[C@H](NC(=O)[C@H](CC(=O)O)NC(=O)[C@H](CC(N)=O)NC(=O)[C@@H](NC(=O)[C@@H](NC(=O)Cc1ccc2ccccc2c1)C(C)C)C(C)C)C(=O)O", 5.30),
]

(P) CC(C)C[C@H](NC(=O)[C@H](CC(=O)O)NC(=O)[C@H](CC(N)=O)NC(=O)[C@@H](NC(=O)[C@@H](NC(=O)C(Cc1ccccc1)Cc1ccc(O)cc1)C(C)C)C(C)C)C(=O)O (stereo in doubt; form 1)
(Q) CC(C)C[C@H](NC(=O)[C@H](CC(=O)O)NC(=O)[C@H](CC(N)=O)NC(=O)[C@@H](NC(=O)[C@@H](NC(=O)[C@H](Cc1ccc(O)cc1)NCc1ccccc1)C(C)C)C(C)C)C(=O)O (H-[NBnTyr]VVNDL-OH)
Endpoint returns the identifier whose pIC50 is numerically larger, either P or Q . Selection: enter the item's label.
P
(P: 6.35, Q: 5.22)
